Values compiled from patent US10336726B2.

- assay_details: In vivo determination of plasma and brain concentrations and unbound brain-to-plasma partition coefficient (Kp,uu,brain) in rats
- test_context: male, Sprague-Dawley, rat, plasma, oral, 10 mg/kg, 1.0 hr post 10 mg/kg oral dose, mean ± SD, read-out: Total plasma conc. (Ctotal,plasma)
reported_endpoint: concentration at 1 h (nM)
Only the number, expressed in nM, is required.

Task: Which concentration at 1 h reading was recorded for the compound `Cc1cc(OCc2ccc([C@@H](C)[C@]3(C)CC(=O)NC3=O)cc2)cc(C2CC2)n1` ?
Output: 655

###

- assay_details: In vivo determination of plasma and brain concentrations and unbound brain-to-plasma partition coefficient (Kp,uu,brain) in rats
- test_context: male, Sprague-Dawley, rat, brain, oral, 10 mg/kg, 1.0 hr post 10 mg/kg oral dose, mean ± SD, read-out: Total brain conc. (Ctotal,brain)
reported_endpoint: concentration at 1 h (nM)
Only the number, expressed in nM, is required.

Task: Which concentration at 1 h reading was recorded for the molecule `Cc1cc(OCc2ccc([C@@H](C)[C@]3(C)CC(=O)NC3=O)cc2)cc(C2CC2)n1` ?
Output: 962

###

- assay_details: In vivo determination of plasma and brain concentrations and unbound brain-to-plasma partition coefficient (Kp,uu,brain) in rats
- test_context: male, Sprague-Dawley, rat, brain, oral, 10 mg/kg, 3.0 hr post 10 mg/kg oral dose, mean ± SD, read-out: Total brain conc. (Ctotal,brain)
reported_endpoint: concentration at 3 h (nM)
Only the number, expressed in nM, is required.

Task: Which concentration at 3 h reading was recorded for the compound `Cc1cc(OCc2ccc([C@@H](C)[C@]3(C)CC(=O)NC3=O)cc2)cc(C2CC2)n1` ?
Output: 515

###

- assay_details: Rat plasma and brain homogenate protein binding by equilibrium dialysis
- Format: in vitro ADME
- test_context: rat brain homogenate
reported_endpoint: fraction unbound in brain (fu,brain)
Output: the number by itself.

Task: Which fraction unbound in brain (fu,brain) reading was recorded for the compound `Cc1cc(OCc2ccc([C@@H](C)[C@]3(C)CC(=O)NC3=O)cc2)cc(C2CC2)n1` ?
Output: 0.043
